Catalogue of pIC50 values
# ASSAY_TARGET: Cytochrome P450 3A4 (Homo sapiens)
# Sequence (P08684 whole entry): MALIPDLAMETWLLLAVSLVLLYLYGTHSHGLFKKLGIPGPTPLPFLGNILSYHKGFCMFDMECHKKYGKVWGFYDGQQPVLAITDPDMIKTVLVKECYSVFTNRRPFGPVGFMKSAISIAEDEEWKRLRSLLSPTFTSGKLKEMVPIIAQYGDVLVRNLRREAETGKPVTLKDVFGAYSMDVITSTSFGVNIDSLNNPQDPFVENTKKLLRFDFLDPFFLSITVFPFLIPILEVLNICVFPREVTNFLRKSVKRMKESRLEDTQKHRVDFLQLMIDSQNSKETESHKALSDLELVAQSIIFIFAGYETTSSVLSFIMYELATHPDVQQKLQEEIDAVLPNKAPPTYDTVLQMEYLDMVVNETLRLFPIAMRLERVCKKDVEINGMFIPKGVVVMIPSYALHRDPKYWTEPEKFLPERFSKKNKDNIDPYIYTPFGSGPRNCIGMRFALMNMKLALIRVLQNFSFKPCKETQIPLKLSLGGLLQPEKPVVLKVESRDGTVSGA
# TEST: Inhibition of recombinant human CYP3A4 assessed as conversion of testosterone into 6-hydroxytestosterone after 30 mins by HPLC analysis
# Format: ADME
pIC50: −log10 of the molar value.
READOUT_KIND: pIC50

# COMPOUND, OBSERVED
measured = [
    ("CNC(=O)c1ccc2cc(C3(O)c4cncn4CC3(C)C)ccc2c1 (racemic)", 5.49),
    ("O=C(NC1CC1)c1ccc2cc(C3(O)CCn4cncc43)ccc2c1 (racemic)", "< 5.00"),
    ("CNC(=O)c1ccc2cc(C3CCn4cncc43)ccc2c1 (racemic)", "> 6.00"),
    ("CCNC(=O)c1ccc2cc(C3(O)CCn4cncc43)ccc2c1 (racemic)", "< 5.00"),
    ("CNC(=O)c1ccc2cc(C(C)(O)c3cncn3C)ccc2c1 (racemic)", 5.16),
    ("NC(=O)c1ccc2cc(C3(O)CCn4cncc43)ccc2c1 (racemic)", "< 5.00"),
    ("CC(C)NC(=O)c1ccc2cc(C3(O)CCn4cncc43)ccc2c1 (racemic)", "< 5.00"),
]
